biological target: UniProt:P48736
Sequence (P48736 whole entry): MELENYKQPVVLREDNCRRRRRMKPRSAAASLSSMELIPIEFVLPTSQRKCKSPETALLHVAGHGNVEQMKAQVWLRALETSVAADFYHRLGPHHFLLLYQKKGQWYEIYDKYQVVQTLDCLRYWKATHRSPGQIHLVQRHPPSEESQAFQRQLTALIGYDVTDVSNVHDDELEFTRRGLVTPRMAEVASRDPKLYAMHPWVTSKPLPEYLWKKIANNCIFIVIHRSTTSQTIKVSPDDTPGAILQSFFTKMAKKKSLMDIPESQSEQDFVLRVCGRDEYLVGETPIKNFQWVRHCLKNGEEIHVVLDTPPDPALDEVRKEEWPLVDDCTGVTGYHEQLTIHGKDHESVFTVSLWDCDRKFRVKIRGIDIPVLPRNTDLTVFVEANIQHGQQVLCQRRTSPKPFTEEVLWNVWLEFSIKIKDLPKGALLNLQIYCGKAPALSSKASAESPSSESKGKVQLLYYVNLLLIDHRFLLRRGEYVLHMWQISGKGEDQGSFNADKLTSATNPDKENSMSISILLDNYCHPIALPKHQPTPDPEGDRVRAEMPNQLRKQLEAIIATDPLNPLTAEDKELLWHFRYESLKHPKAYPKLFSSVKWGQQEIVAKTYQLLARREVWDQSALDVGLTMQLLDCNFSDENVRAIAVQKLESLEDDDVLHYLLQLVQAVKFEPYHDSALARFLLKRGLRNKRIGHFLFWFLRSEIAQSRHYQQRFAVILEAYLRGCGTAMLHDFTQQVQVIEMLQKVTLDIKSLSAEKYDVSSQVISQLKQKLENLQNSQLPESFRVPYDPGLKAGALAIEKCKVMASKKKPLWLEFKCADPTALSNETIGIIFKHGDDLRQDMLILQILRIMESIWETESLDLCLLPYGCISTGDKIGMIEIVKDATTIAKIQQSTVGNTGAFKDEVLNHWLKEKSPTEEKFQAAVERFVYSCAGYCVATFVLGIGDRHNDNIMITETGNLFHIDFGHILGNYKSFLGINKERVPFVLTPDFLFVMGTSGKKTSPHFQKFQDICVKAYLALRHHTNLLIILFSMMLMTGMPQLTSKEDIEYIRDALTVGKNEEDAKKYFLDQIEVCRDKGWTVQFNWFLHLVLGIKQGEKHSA
Assay Endpoint: IC50 (nM)

Solved cases (3 shown):
Q: Could you tell me which IC50 is on file for N#Cc1c[nH]c2ncnc(N3CC[C@H]3c3nn4ccc(Cl)c4c(=O)n3-c3ccccc3)c12 [Compound 28] ?
Ans: 32

Q: Any idea what IC50 was measured for Cc1nc(N)nc(N2CC[C@H]2c2nn3ccc(Cl)c3c(=O)n2-c2ccc(F)cc2)c1C#N [Compound 442] ?
Ans: 1

Q: Form field: reported IC50 of N#Cc1c[nH]c2ncnc(N3CCC[C@H]3c3nn4ccc(Cl)c4c(=O)n3Cc3ccccc3)c12 [Compound 62]
Ans: 39

P. CNc1ncnc(N2CCC[C@H]2c2nn3ccc(Cl)c3c(=O)n2-c2ccccc2)n1 [Compound 200]
Q. N#Cc1c[nH]c2ncnc(N3CCC[C@H]3c3nn4ccc(Cl)c4c(=O)n3Cc3ncccn3)c12 [Compound 155]
R. Nc1nc(N2CCC[C@H]2c2nn3ccc(C4CC4)c3c(=O)n2-c2ccccc2)c2nc[nH]c2n1 [Compound 53]
Q: Your job: order these 3 records by IC50, ascending. Answer by naming the labels in the order asked.
Ans: R, Q, P
(R: 35 nM, Q: 133 nM, P: 190 nM)

A. Nc1nc(N2CC(F)(F)C[C@H]2c2nn3ccc(Cl)c3c(=O)n2-c2ccccc2)n2nccc2n1 [Compound 136]
B. O=c1c2c(Cl)ccn2nc([C@@H]2CCCN2c2ncnc3[nH]cnc23)n1CCN1CCOCC1 [Compound 253]
Q: Endpoint returns whichever of A and B has the numerically higher IC50. Pick one and reply with its label.
Ans: B

A. C[C@H]1CN(c2nc(N)ncc2C#N)C1c1nn2ccc(F)c2c(=O)n1-c1ccccc1 (stereo partly drawn) [Compound 430]
B. C[S+]([O-])c1c[nH]c2ncnc(N3CCC[C@H]3c3nn4ccc(F)c4c(=O)n3-c3ccccc3)c12 (stereo partly drawn) [Compound 219]
Q: In terms of reported IC50, does A or B have the smaller number? Which one? Tell me its label.
Ans: B

I. CC(=O)c1cnc(N)nc1N1CC(C)(C)C1c1nn2ccc(Cl)c2c(=O)n1-c1ccccc1 (stereo in doubt) [Compound 484]
II. C[S+]([O-])c1c[nH]c2ncnc(N3CCC[C@H]3c3nn4ccc(Cl)c4c(=O)n3-c3ccccc3)c12 (stereo partly drawn) [Compound 186]
III. CC(Nc1ncnc2[nH]cc(-c3ccc(N)nc3)c12)c1cc2ncc(Cl)n2c(=O)n1-c1ccccc1 (stereo not drawn) [Compound 174]
Q: List the 3 entries from lowest IC50 to highest IC50 value. Use the labels to give the requested order.
Ans: I, II, III

P. C[C@H]1CN(c2nc(N)ncc2C#N)C1c1nn2ccc(Cl)c2c(=O)n1-c1ccccc1 (stereo partly drawn) [Compound 431]
Q. O=C1C[C@@H](c2nn3ccc(Cl)c3c(=O)n2-c2ccccc2)N(c2ncnc3[nH]cnc23)C1 [Compound 381]
Q: Decide: P or Q , by lowest recorded IC50. Record your answer as the label of the chosen record.
Ans: P
(P: 8 nM, Q: 29 nM)

====

target: p110δ/p85α (Homo sapiens); test: Transcreener KINASE Assay, kinase inhibition of p110δ/p85α; format: biochemical; conditions: 1 uM test compound
Sequence (O00329 whole entry): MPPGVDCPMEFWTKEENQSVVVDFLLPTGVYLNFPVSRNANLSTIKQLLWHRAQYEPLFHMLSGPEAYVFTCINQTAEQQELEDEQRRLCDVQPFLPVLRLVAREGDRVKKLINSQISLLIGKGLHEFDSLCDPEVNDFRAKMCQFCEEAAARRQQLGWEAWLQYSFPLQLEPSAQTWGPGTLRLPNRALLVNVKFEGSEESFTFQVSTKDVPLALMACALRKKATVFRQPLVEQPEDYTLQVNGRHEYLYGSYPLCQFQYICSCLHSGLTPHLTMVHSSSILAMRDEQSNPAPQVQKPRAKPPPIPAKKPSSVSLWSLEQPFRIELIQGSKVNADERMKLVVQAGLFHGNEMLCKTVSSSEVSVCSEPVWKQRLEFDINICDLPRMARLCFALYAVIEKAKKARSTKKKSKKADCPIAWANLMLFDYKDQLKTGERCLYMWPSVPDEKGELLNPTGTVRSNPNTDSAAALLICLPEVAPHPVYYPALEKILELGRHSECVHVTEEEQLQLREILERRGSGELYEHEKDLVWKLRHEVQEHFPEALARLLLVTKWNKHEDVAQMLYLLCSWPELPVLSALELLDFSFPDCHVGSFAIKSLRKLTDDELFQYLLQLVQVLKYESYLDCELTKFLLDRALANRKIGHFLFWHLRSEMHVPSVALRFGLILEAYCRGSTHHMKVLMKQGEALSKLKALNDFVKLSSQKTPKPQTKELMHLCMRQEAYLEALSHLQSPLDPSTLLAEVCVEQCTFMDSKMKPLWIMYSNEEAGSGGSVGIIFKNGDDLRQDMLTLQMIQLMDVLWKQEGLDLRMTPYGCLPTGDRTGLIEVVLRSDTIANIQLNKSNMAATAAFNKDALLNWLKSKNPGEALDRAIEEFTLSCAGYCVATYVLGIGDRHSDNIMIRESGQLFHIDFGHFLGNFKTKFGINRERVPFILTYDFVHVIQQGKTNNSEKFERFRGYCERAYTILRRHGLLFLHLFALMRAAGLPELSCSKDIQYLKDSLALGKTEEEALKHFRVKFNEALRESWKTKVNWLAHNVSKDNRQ
Sequence (P27986 whole entry partner): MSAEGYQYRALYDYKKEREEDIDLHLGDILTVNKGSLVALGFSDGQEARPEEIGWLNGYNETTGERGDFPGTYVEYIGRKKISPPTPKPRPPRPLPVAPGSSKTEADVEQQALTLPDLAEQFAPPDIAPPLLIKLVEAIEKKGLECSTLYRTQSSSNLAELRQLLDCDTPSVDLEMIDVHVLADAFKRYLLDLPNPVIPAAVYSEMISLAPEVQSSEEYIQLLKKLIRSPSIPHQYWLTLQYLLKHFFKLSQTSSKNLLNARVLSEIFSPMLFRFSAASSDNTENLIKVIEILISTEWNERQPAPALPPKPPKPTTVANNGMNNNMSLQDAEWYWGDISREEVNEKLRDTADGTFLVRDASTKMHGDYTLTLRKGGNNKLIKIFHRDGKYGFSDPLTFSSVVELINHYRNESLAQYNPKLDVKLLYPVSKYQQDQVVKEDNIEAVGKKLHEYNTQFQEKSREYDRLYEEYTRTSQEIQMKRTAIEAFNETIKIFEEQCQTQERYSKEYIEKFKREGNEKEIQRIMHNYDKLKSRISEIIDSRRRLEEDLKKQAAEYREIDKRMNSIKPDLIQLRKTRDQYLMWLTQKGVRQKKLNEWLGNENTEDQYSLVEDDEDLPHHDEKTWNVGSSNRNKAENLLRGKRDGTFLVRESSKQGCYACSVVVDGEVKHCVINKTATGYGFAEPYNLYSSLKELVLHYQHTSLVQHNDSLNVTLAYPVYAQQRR
Assay Endpoint: PI3Kδ IH % @ 1 uM (%)

Recorded PI3Kδ IH % @ 1 uM, per entry:
Q: Value lookup for PI3Kδ IH % @ 1 uM; key = `N#C[C@H]1C[C@@H](c2nn3ccc(Cl)c3c(=O)n2-c2cccc(F)c2)N(c2ncnc3[nH]cnc23)C1`
Ans: 98.3

Q: What value of measured PI3Kδ IH % @ 1 uM is listed for `Nc1ncc(Cl)c(N2CC[C@H]2c2nn3ccc(Cl)c3c(=O)n2-c2ccccc2)n1` ?
Ans: 81.0

Q: Suppose we examine the compound `O=c1c2c(Cl)ccn2nc([C@@H]2CSCN2c2ncnc3[nH]cnc23)n1-c1ccccc1` ; what PI3Kδ IH % @ 1 uM value has been reported?
Ans: 99.3

Q: Could you tell me which PI3Kδ IH % @ 1 uM is on file for `CC(=O)c1c[nH]c2ncnc(N3CC[C@H]3c3nn4ccc(Cl)c4c(=O)n3-c3ccccn3)c12` ?
Ans: 97.1

Q: Could you tell me which PI3Kδ IH % @ 1 uM is on file for `Nc1nc2c(c(N3CC[C@H]3c3nn4ccc(F)c4c(=O)n3-c3ccccc3)n1)C(=O)CCN2` ?
Ans: 96.2

Q: What does the data say about its PI3Kδ IH % @ 1 uM? Entry: `CC(=O)c1cnc(N)nc1N1CC[C@H]1c1nn2ccc(Cl)c2c(=O)n1-c1cccc(C)n1`
Ans: 91.6

1. N#Cc1cccc(-n2c([C@@H]3CCCN3c3ncnc4[nH]cnc34)nn3ccc(Cl)c3c2=O)c1
2. Nc1nc(N2CCC[C@H]2c2nn3ccc(Cl)c3c(=O)n2-c2ccccc2)c2ncccc2n1
Q: Problem: Given the entries 1 and 2 , determine which has the lower reported PI3Kδ IH % @ 1 uM. # reply format: chosen label
Ans: 2
(2: 48.4%, 1: 74.0%)

I. C[S+]([O-])c1c[nH]c2ncnc(N3CCC[C@H]3c3nn4ccc(Cl)c4c(=O)n3-c3ccccn3)c12 (single isomer, unassigned)
II. Cc1nc(N)nc(N2CC[C@H]2c2nn3c(C)cc(Cl)c3c(=O)n2-c2ccccc2)c1C#N
Q: Which record would sort first by descending PI3Kδ IH % @ 1 uM, I or II ? Which one? Tell me its label.
Ans: I
